Item-by-item account of gamma-GTP
- Species: Rattus norvegicus
- Test: Open TG-GATES - Regimen: Daily Repeat
- Assay type: toxicity, organism-based, Sprague-Dawley
- Design: regimen Daily Repeat, gender Male, age 6 weeks
- Study conditions: in vivo, po, 0 mg/kg, […], tissue Plasma, route gavage, dose level Control, time 7 day
Outcome measure: gamma-GTP (IU/L)

>  <Compound>
CN1C(=O)OC(C)(C)C1=O [TRIMETHADIONE]

>  <Outcome measure>
gamma-GTP

>  <Experimental result>
1

$$$$
>  <Compound>
CC(=O)Oc1cc(C(C)C)c(OCCN(C)C)cc1C [MOXISYLYTE]

>  <Outcome measure>
gamma-GTP

>  <Experimental result>
1.4

$$$$
>  <Compound>
CCSCC[C@H](N)C(=O)O [ETHIONINE]

>  <Outcome measure>
gamma-GTP

>  <Experimental result>
0.8

$$$$
>  <Compound>
CCc1oc2ccccc2c1C(=O)c1cc(I)c(O)c(I)c1 [BENZIODARONE]

>  <Outcome measure>
gamma-GTP

>  <Experimental result>
1.8

$$$$
>  <Compound>
Oc1ncnc2[nH]ncc12 [ALLOPURINOL]

>  <Outcome measure>
gamma-GTP

>  <Experimental result>
1.2

$$$$
>  <Compound>
C[C@]12CCC(=O)C=C1CC[C@@H]1[C@@H]2CC[C@@]2(C)[C@H]1CC[C@]2(C)O [METHYLTESTOSTERONE]

>  <Outcome measure>
gamma-GTP

>  <Experimental result>
1.2

$$$$
>  <Compound>
CC(C)C(=O)Nc1ccc([N+](=O)[O-])c(C(F)(F)F)c1 [FLUTAMIDE]

>  <Outcome measure>
gamma-GTP

>  <Experimental result>
1.2

$$$$
>  <Compound>
O=C(O)c1cccnc1 [NIACIN]

>  <Outcome measure>
gamma-GTP

>  <Experimental result>
1.6

$$$$
>  <Compound>
Nc1nc(N)c2nc(-c3ccccc3)c(N)nc2n1

>  <Outcome measure>
gamma-GTP

>  <Experimental result>
1

$$$$
>  <Compound>
CCN1CCCC1CNC(=O)c1cc(S(N)(=O)=O)ccc1OC (stereo not given) [SULPIRIDE]

>  <Outcome measure>
gamma-GTP

>  <Experimental result>
1

$$$$

* * *

- Species: Rattus norvegicus
- Test: Open TG-GATES - Regimen: Daily Repeat
- Assay type: toxicity, organism-based, Sprague-Dawley
- Design: regimen Daily Repeat, gender Male, age 6 weeks
- Study conditions: in vivo, po, 100 mg/kg, […], route gavage, dose level Low, time 28 day

>  <Compound>
CCN1CCCC1CNC(=O)c1cc(S(N)(=O)=O)ccc1OC (centres undefined) [SULPIRIDE]

>  <TERMINAL_BW (g)>
377.8

$$$$
>  <Compound>
O=C(O)c1cccnc1 [NIACIN]

>  <TERMINAL_BW (g)>
387.9

$$$$
>  <Compound>
O=C(N[C@H](CO)[C@H](O)c1ccc([N+](=O)[O-])cc1)C(Cl)Cl [CHLORAMPHENICOL]

>  <TERMINAL_BW (g)>
409.6

$$$$
>  <Compound>
CC(C)(S)[C@@H](N)C(=O)O [PENICILLAMINE]

>  <TERMINAL_BW (g)>
410.3

$$$$

* * *

Item-by-item account of TP
- Species on record: Rattus norvegicus
- Test: Open TG-GATES - Regimen: Daily Repeat
- Assay type: toxicity, organism-based, Sprague-Dawley
- Set-up: regimen Daily Repeat, gender Male, age 6 weeks
- Study conditions: in vivo, po, 0 mg/kg, […], tissue Plasma, route gavage, dose level Control, time 28 day

>  <Molecule>
C[C@](N)(Cc1ccc(O)c(O)c1)C(=O)O

>  <TP (g/dL)>
6.3

$$$$
>  <Molecule>
CC(=N)S [THIOACETAMIDE]

>  <TP (g/dL)>
6.3

$$$$
>  <Molecule>
O=C(N[C@H](CO)[C@H](O)c1ccc([N+](=O)[O-])cc1)C(Cl)Cl

>  <TP (g/dL)>
6.3

$$$$
>  <Molecule>
CCN1CCCC1CNC(=O)c1cc(S(N)(=O)=O)ccc1OC (stereo not given) [SULPIRIDE]

>  <TP (g/dL)>
6.1

$$$$
>  <Molecule>
CCc1oc2ccccc2c1C(=O)c1cc(I)c(O)c(I)c1

>  <TP (g/dL)>
6.2

$$$$
>  <Molecule>
CC(C)C(=O)Nc1ccc([N+](=O)[O-])c(C(F)(F)F)c1 [FLUTAMIDE]

>  <TP (g/dL)>
6

$$$$
>  <Molecule>
C[C@]12CCC(=O)C=C1CC[C@@H]1[C@@H]2CC[C@@]2(C)[C@H]1CC[C@]2(C)O

>  <TP (g/dL)>
6.2

$$$$
>  <Molecule>
CC(C)(S)[C@@H](N)C(=O)O

>  <TP (g/dL)>
6.3

$$$$
>  <Molecule>
CCC(C)(C)C(=O)O[C@H]1C[C@@H](C)C=C2C=C[C@H](C)[C@H](CC[C@@H]3C[C@@H](O)CC(=O)O3)[C@H]21

>  <TP (g/dL)>
6.1

$$$$
>  <Molecule>
Nc1nc(N)c2nc(-c3ccccc3)c(N)nc2n1

>  <TP (g/dL)>
6.3

$$$$

* * *

- Species on record: Rattus norvegicus
- Test: Open TG-GATES - Regimen: Daily Repeat
- Type: toxicity, organism-based, Sprague-Dawley
- Design: regimen Daily Repeat, gender Male, age 6 weeks
- Study conditions: in vivo, po, 1000 mg/kg, […], tissue Blood, route gavage, dose level High, time 14 day
Item-by-item account of Ret

>  <Compound>
CC(C)(S)[C@@H](N)C(=O)O [PENICILLAMINE]

>  <Unit string>
%

>  <Ret>
4.9

$$$$
>  <Compound>
CCN1CCCC1CNC(=O)c1cc(S(N)(=O)=O)ccc1OC (centres undefined) [SULPIRIDE]

>  <Unit string>
%

>  <Ret>
3.8

$$$$
>  <Compound>
O=C(N[C@H](CO)[C@H](O)c1ccc([N+](=O)[O-])cc1)C(Cl)Cl [CHLORAMPHENICOL]

>  <Unit string>
%

>  <Ret>
4.4

$$$$
>  <Compound>
O=C(O)c1cccnc1 [NIACIN]

>  <Unit string>
%

>  <Ret>
4.6

$$$$

* * *

Item-by-item account of Lym
- Species on record: Rattus norvegicus
- Test: Open TG-GATES - Regimen: Single
- Format: toxicity, organism-based, Sprague-Dawley
- Design: regimen Single, gender Male, age 6 weeks
- Study conditions: in vivo, po, 0 mg/kg, 6 h, tissue Blood, route gavage, dose level Control
Outcome measure: Lym (%)

>  <Compound>
C[C@](N)(Cc1ccc(O)c(O)c1)C(=O)O [METHYLDOPA]

>  <Unit string>
%

>  <Experimental result>
70.4

$$$$
>  <Compound>
O=C(N[C@H](CO)[C@H](O)c1ccc([N+](=O)[O-])cc1)C(Cl)Cl [CHLORAMPHENICOL]

>  <Unit string>
%

>  <Experimental result>
72.2

$$$$
>  <Compound>
CC(=N)S [THIOACETAMIDE]

>  <Unit string>
%

>  <Experimental result>
79

$$$$
>  <Compound>
C#C[C@]1(O)CC[C@H]2[C@@H]3CCc4cc(O)ccc4[C@H]3CC[C@@]21C [ETHINYL ESTRADIOL]

>  <Unit string>
%

>  <Experimental result>
75

$$$$
>  <Compound>
CC(=O)Oc1cc(C(C)C)c(OCCN(C)C)cc1C [MOXISYLYTE]

>  <Unit string>
%

>  <Experimental result>
80.2

$$$$
>  <Compound>
CCSCC[C@H](N)C(=O)O [ETHIONINE]

>  <Unit string>
%

>  <Experimental result>
81.8

$$$$
>  <Compound>
CC(C)C(=O)Nc1ccc([N+](=O)[O-])c(C(F)(F)F)c1 [FLUTAMIDE]

>  <Unit string>
%

>  <Experimental result>
80

$$$$
>  <Compound>
CCc1oc2ccccc2c1C(=O)c1cc(I)c(O)c(I)c1 [BENZIODARONE]

>  <Unit string>
%

>  <Experimental result>
84

$$$$
>  <Compound>
O=C(O)c1cccnc1 [NIACIN]

>  <Unit string>
%

>  <Experimental result>
76.2

$$$$
>  <Compound>
Nc1nc(N)c2nc(-c3ccccc3)c(N)nc2n1

>  <Unit string>
%

>  <Experimental result>
77.2

$$$$

* * *

- Species on record: Rattus norvegicus
- Test: Open TG-GATES - Regimen: Daily Repeat
- Format: toxicity, organism-based, Sprague-Dawley
- Set-up: regimen Daily Repeat, gender Male, age 6 weeks
- Study conditions: in vivo, po, 100 mg/kg, 72 h, tissue Plasma, route gavage, dose level Low, time 3 day
Item-by-item account of Ca

>  <Compound>
O=C(N[C@H](CO)[C@H](O)c1ccc([N+](=O)[O-])cc1)C(Cl)Cl

>  <Ca [mg/dL]>
11.1

$$$$
>  <Compound>
CCN1CCCC1CNC(=O)c1cc(S(N)(=O)=O)ccc1OC (centres undefined) [SULPIRIDE]

>  <Ca [mg/dL]>
11

$$$$
>  <Compound>
O=C(O)c1cccnc1

>  <Ca [mg/dL]>
10.8

$$$$
>  <Compound>
CC(C)(S)[C@@H](N)C(=O)O

>  <Ca [mg/dL]>
10.8

$$$$
